target.under.test: recombinant soluble homotrimeric HA of A/Anhui/1/05 (H5N1) (Influenza A virus A/Anhui/1/2005(H5N1))
protocol.description: HA microarray, BCC supernatant
experimental.setup: remark: other sources report otherwise
measurement.label: Trimeric HA Binding: RLU

>>> value_measured("TCN-553 (5261_C18) (antibody, V domains shown) VH: QVQVVQSGTEVKKPGSSVKVSCQTSGGRFMSYAITWVRQAPGQGLEWMGGIVPVFGTANYAQKFQGRVTITTDDSTRTAYMELSSLRSEDTAVYYCGFRYGSGYGFDSWGQGTLVTVSS VL: EIVLTQSPGTLSLSPGERATLSCRASQSVSSSYLAWYQKKPGQAPRLLIYGASTRATGIPDRFTGSGSGTDFTLSISRLEPEDFAVYYCQHFGTSVFTFGGGTKVEIK")
"12600 RLU"
>>> value_measured("TCN-555 (5246_L16) (antibody, V domains shown) VH: QVQLVQSGAEVKRPGSSVKVSCTASGGIFRKNAISWVRQAPGQGLEWMGGIIAVFNTANYAQKFQNRVKITADESGNTAYMELSSLTSDDTAVYYCASHPKYFYGSGSYPDFWGQGTLVTVSS VL: QSALTQPRSVSGSPGQSITISCTGGSSDIGASNSVSWYQQHPGKAPKLVIFDVTERPSGVPHRFSGSKSGNTASLTVSGLQPDDEADYFCCAYGGKYLVVFGGGTKVTVL")
"1500 RLU"
>>> value_measured("TCN-540 (5060_F05) (antibody, V domains shown) VH: QVQLVQSGGGVVQPGRSLRLSCAASGFTFSSYAMHWVRQAPGKGLEWVAIISYDGNDQYYTDSVKGRFTISRDSSKVYLQMHRLRPEDTAVYYCAKEFETSGYFHGSFDYWGQGILVTVSS VL: QSALTQPASVSGSPGQSITISCTGTSSDVGGYNYVSWYQQHPGKAPKLLIYEVTNWPSGVSNRFSGSKSGNTASLTISGLQAEDEADYYCSSYAGSSTWVFGGGTRVTVL")
"25 RLU"
